Where do the numbers come from? From ChEMBL document CHEMBL4265876.

system: A549; assay: Cytotoxicity against human A549 cells by MTT assay; type: functional, cell-based
pIC50: −log10 of the molar value.
Measured Parameter: pIC50

Q: Param item = CN1CC[C@]23c4ccccc4N[C@H]1[C@@]21CCN2CN4c5ccccc5[C@@]56CCN(C)[C@@]45N(c4c6cccc41)[C@@H]23 ; retrieve measured pIC50.
Result: < 4.40

---

tested on: ACHN; test: Cytotoxicity against human ACHN cells; format: functional, cell-based
Measured Parameter: pIC50
One number for each entry, as −log10 of the molar value.

Q: Param item = COc1c(SC)c(CCN(C)C)c2sc3c(OC)c(OC)c(SC)c(CCN(C)C)c3ssc2c1OC ; retrieve measured pIC50.
Result: 6.62
